Where these numbers come from: paper PMC4565553

Measured Kd, listed per entry for reference.
study-target: human IPS1 CARD (1–92), FLAG-tagged (human) (UniProt Q7Z434)
assay-protocol: BLI; label-free in vitro kinetics assay; FLAG-tagged IPS1 CARD (2.5 μg/mL) immobilised on anti-FLAG probes; RLR CARDs at 0.001–100 μM in 1x Kinetics Buffer (ForteBio) with BSA, pH 7.0; 60 min association, 60 min dissociation; Kd = half-maximal steady-state binding, Km = half-maximal initial binding rate, one-site fit, 3 replicates; no ubiquitin

[
  {
    "binder": "human RIG-I CARD1 (1–87) (domain or fragment) MTTEQRRSLQAFQDYIRKTLDPTYILSYMAPWFREEEVQYIQAEKNNKGPMEAATLFLKFLLELQEEGWFRGFLDALDHAGYSGLYE",
    "uom": "nM",
    "Kd": 33.1
  },
  {
    "binder": "human MDA5 CARD1 (1–96) (domain or fragment) MSNGYSTDENFRYLISCFRARVKMYIQVEPVLDYLTFLPAEVKEQIQRTVATSGNMQAVELLLSTLEKGVWHLGWTREFVEALRRTGSPLAARYMN",
    "uom": "nM",
    "Kd": 813
  }
]
